Biological target: GPR40 (Homo sapiens)
Construct: expressed in transfected cells; host or cells: HEK293 cells stably expressing GPR40 (Hygromycin selection)
Sequence (O14842 whole entry): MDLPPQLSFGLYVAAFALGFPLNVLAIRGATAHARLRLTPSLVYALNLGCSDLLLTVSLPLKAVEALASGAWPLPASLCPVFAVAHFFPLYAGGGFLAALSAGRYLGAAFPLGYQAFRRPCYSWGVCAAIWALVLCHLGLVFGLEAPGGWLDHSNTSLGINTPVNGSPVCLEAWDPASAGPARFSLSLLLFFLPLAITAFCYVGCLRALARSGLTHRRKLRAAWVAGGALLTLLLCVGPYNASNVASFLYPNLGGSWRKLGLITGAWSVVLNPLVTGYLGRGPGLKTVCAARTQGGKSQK
Test: IP1 accumulation assay in HEK293 cells stably expressing GPR40
Format: cell-based
Conditions: IP1 accumulation, HEK293 cells stably expressing GPR40, 2 hours at 37° C., % effect relative to AMG-1638; table of Biological Example 1
Description: IP1 accumulation assay was used to evaluate the potency of compounds. […] Assay plate was incubated at room temperature for 60 min and then read at 665 nm/615 nm on an Envision plate reader (PerkinElmer). […] Dose curve was fitted and EC50 of each compound was calculated by using XLFit.
property.label: pEC50
For clarity, pEC50 is expressed as the negative log10 of concentration in mol/L.

COc1ccc(F)c(-c2ccc(COc3cccc([C@@H](CC(=O)O)C4CC4)c3)cc2CC(C)(C)Cc2cn(CCCCCCCCCCCCCC(=O)NCC[N+](C)(CCC(=O)NCCN)CCC(=O)NCCN)nn2)c1: 7.31

Task item: Find the measured pEC50 of "COc1ccc(F)c(-c2ccc(COc3cccc([C@@H](CC(=O)O)C4CC4)c3)cc2CC(C)(C)Cn2cc(CCCCCCCCCCCCC(=O)NCC[N+](C)(CCC(=O)NCCN)CCC(=O)NCCN)nn2)c1" and report it.
Reply: 6.82

Task item: Find the measured pEC50 of "COc1ccc(F)c(-c2ccc(COc3cccc([C@@H](CC(=O)O)C4CC4)c3)cc2CC(C)(C)Cn2cc(CCCCCCCCCCCCCC(=O)NCCCN(CC(=O)O)CC(=O)O)nn2)c1" and report it.
Reply: 6.16
